test: chemical genetic growth profiling, strain panel (AID 1159580);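 further: tested at 20 µM; growth read once vehicle control cultures reached saturation at 30 °C; 1 = growth at the plate median or of vehicle wells; lower values mean less growth of the strain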; conditions: S. cerevisiae deletion strains, growth OD, locus YNL020C, strain ARK1, hits give low values
About 2,000 (36%) of roughly 5,500 compounds were called active. Roughly 18% stayed inconclusive and do not appear here. Some of the results follow.
Quantity Kind: normalized growth

[[record]]
molecule = "N#Cc1c(Br)cnn1Cc1cc(C(F)(F)F)cc(C(F)(F)F)c1"
quantity_kind = "normalized growth"
recorded_measurement = 0.888

[[record]]
molecule = "Cc1nc(-c2ccc(C(F)(F)F)cn2)[nH]c(=O)c1Cl"
quantity_kind = "normalized growth"
recorded_measurement = 0.853

[[record]]
molecule = "COc1ccc(C2CC(c3ccccc3)=Nc3ccccc3S2)cc1OC (configuration not stated)"
quantity_kind = "normalized growth"
recorded_measurement = 0.939

[[record]]
molecule = "C/C(=N/Nc1nc(C(C)(C)C)cs1)c1ccc(Cl)c(Cl)c1"
quantity_kind = "normalized growth"
recorded_measurement = 0.917

[[record]]
molecule = "Cc1cc(C(=O)N(c2ccccc2)C(C)C2CC2)c(Cl)cc1Cl (configuration not stated)"
quantity_kind = "normalized growth"
recorded_measurement = 0.95

[[record]]
molecule = "CC(C)(C)c1cc2nc(C(F)(F)F)cc(NNC(=O)c3ccc(Cl)cc3)n2n1"
quantity_kind = "normalized growth"
recorded_measurement = 1.01

[[record]]
molecule = "O=C1Nc2ccccc2/C1=N/N=C\\c1ccccc1Cl"
quantity_kind = "normalized growth"
recorded_measurement = 0.896

